# Test system: MS2 coat protein
# method.summary: apparent KD of MS2 coat protein; higher = weaker reporter binding
# test.context: Eterna round: R107; input ligand: arginine 13.2 mM
List of apparent KD of MS2 coat protein values.

Illustrative cases are given below, each with its answer.
AUAAAAGGGUUAUAUAGAUUUAGGUCCAGUCGAGGACCGGUACGGCCGCCACUCGUACUGAAAUACAUGAGGAUCACCCAUGUUA [JR_SSTryptoA_Sub006] = 0.0164 µM
GUACAUGAGGAUCACCCAUGUAUAGUUGAAGGAGCGACCAGAGGGUCAGGUAGGUCGCAGCACAUGGCGUAAACCCGUGUAUGCC [#1 Exclusion - Arginine A Attempt #23 (Inspired by Pi)] = 0.0204 µM
AUGUCCUAAACGGCCGCCACUUACAUGAGGAUCACCCAUGUUUACCGAUAUGGUUGUUGCUUUCCAAGGACCGGGUUUAAUCUGC [theeternabot_exclusion_MS2_Trp_B_49] = 0.0131 µM
UGACAUUGCUCAGAUACCAGACAUGAGCAUCAGCCAUGUACCGAGAGUACAUGUUAAAGUGUCCCUUGGCAGCUGAGCAAUGUCU [Mod of Eli's TheoBX5 #AlternateMS2 v4] = 0.116 µM

// moving on: another record for apparent KD of MS2 coat protein
Problem: Indicate the recorded apparent KD of MS2 coat protein value for this sequence: AUGACUAACAAAGAAGAUAAAAUGGGUGAACGAGGACCGGUACGGCCGCCACUCGGACAUGAGGAUCACCCAUGUCCAUGUGCAA [#23 Exclusion Tryptophan A]
Solution: 0.0156 µM
